Data provenance is patent US20240309056A1.

- system-name: T1, ubiquitin mutein 77404
- T1 construct: also called Affilin-77404
- assay-comment: SPR; point mutant D3F
measured-parameter: Kd

Inquiry: Suppose we examine the binder SEQ ID NO: 2_D3F (designed binder) AMFDFAQYSAWAEIEALPNLTEMQKDQFIWSLMFDPSVSKEVLGEAQKLNDSQAPK ; what Kd value has been reported?
Reply text: < 0.5 nM
